Could you please report measured inhibition at 20 µM for the items listed next?
Biological target: human JAK2 (Homo sapiens)
Construct: The kinase domain of human JAK2 was amplified from U937mRNA; His tag (pFastBac HTc vector; nickel chelate purification) (N); made in house; host or cells: baculovirus; Sf9 for virus, High Five insect cells for production
Sequence (O60674 849-1124 limits assumed): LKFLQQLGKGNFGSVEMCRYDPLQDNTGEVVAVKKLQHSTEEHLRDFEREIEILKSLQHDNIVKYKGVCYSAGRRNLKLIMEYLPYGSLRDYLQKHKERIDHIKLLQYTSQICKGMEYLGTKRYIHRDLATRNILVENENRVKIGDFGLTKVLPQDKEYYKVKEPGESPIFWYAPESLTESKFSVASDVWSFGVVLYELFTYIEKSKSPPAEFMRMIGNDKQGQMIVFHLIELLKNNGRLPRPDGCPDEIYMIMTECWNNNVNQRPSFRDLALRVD
Assay: JAK kinase assay (ELISA or Alphascreen), Jak2
Type: biochemical
Conditions: standard conditions, read-out: Jak2 inhibition of enzyme activity

Record `CC[C@H](Nc1cncc(-n2cnc3ccc(C#N)cc32)n1)c1ccccc1` , field inhibition at 20 µM: ≥ 50%

Record CC1CC(Nc2cncc(-n3cnc4cc(C#N)ccc43)n2)c2ccccc21 (stereo not drawn) , field inhibition at 20 µM: ≥ 50%

Record CC(Nc1cncc(N2CNc3cc(CN4CCN(C)CC4)ccc32)n1)c1ccc(F)cc1 (stereo not drawn) , field inhibition at 20 µM: < 50%

Record CC(Nc1cncc(-n2cnc3ccccc32)n1)c1cccc(Cl)c1 (stereo not drawn) , field inhibition at 20 µM: < 50%

Record `C[C@H](Nc1cncc(-n2cnc3cccnc32)n1)c1ccc(F)cc1` , field inhibition at 20 µM: < 50%

Record `C[C@@H](c1ccccc1)N(C)c1cncc(-n2cnc3ccc(C#N)cc32)n1` , field inhibition at 20 µM: ≥ 50%

Record N#Cc1ccc2c(c1)ncn2-c1cncc(NC2CCc3ccc(O)cc32)n1 (stereo not drawn) , field inhibition at 20 µM: < 50%

Record CCN(CC)Cc1ccc2c(c1)ncn2-c1cncc(NC(C)c2ccc(F)cc2)n1 (stereo not drawn) , field inhibition at 20 µM: < 50%

Record CC(Nc1cncc(-n2cnc3ccc(C#N)cc32)n1)c1cc(F)cc(F)c1 (stereo not drawn) , field inhibition at 20 µM: ≥ 50%

Record `N#Cc1ccc2ncn(-c3cncc(NC4Cc5ccccc5C4)n3)c2c1` , field inhibition at 20 µM: < 50%

Record `Cc1ccc([C@H](C)Nc2cncc(-n3cnc4cc(C#N)ccc43)n2)cc1` , field inhibition at 20 µM: ≥ 50%

Record `C[C@H](Nc1cncc(-n2cnc3ccc(CN(CCO)CCO)cc32)n1)c1ccc(F)cc1` , field inhibition at 20 µM: ≥ 50%

Record `N#Cc1ccc2ncn(-c3cncc(N[C@H]4CCCc5ccccc54)n3)c2c1` , field inhibition at 20 µM: < 50%

Record CC(Nc1cncc(-n2cnc3ccc(CN4CCN(C)CC4)cc32)n1)c1ccc(F)cc1 (stereo not drawn) , field inhibition at 20 µM: < 50%

Record CCN(CC)Cc1ccc2ncn(-c3cncc(NC(C)c4ccc(F)cc4)n3)c2c1 (stereo not drawn) , field inhibition at 20 µM: < 50%

Record `c1ccc2c(c1)ncn2-c1cncc(-c2ccncc2)n1` , field inhibition at 20 µM: ≥ 50%

Record CC(Nc1cncc(-n2cnc3ccc(C#N)cc32)n1)c1cccc(F)c1 (stereo not drawn) , field inhibition at 20 µM: ≥ 50%

Record `C[C@H](Nc1cncc(-n2cnc3ccc(CN4CCN(CCN)CC4)cc32)n1)c1ccc(F)cc1` , field inhibition at 20 µM: < 50%

Record `N#Cc1ccc2c(c1)ncn2-c1cncc(N[C@H]2CCCc3ccccc32)n1` , field inhibition at 20 µM: ≥ 50%

Record `C[C@H](Nc1cncc(-n2cnc3ccc(CO)cc32)n1)c1ccc(F)cc1` , field inhibition at 20 µM: ≥ 50%

Record CC(Nc1cncc(-n2cnc3ccccc32)n1)c1ccncc1 (stereo not drawn) , field inhibition at 20 µM: < 50%

Record COc1ccc2c(c1)CCC2Nc1cncc(-n2cnc3cc(C#N)ccc32)n1 (stereo not drawn) , field inhibition at 20 µM: < 50%

Record `C[C@H](Nc1cncc(-n2cnc3ncccc32)n1)c1ccccc1` , field inhibition at 20 µM: < 50%

Record `C[C@H](Nc1cncc(-n2cnc3ccc(CN4CCCCC4)cc32)n1)c1ccc(F)cc1` , field inhibition at 20 µM: ≥ 50%

Record CC(Nc1cncc(-n2cnc3ccncc32)n1)c1ccc(F)cc1 (stereo not drawn) , field inhibition at 20 µM: < 50%

Record `N#Cc1ccc2ncn(-c3cncc(Cl)n3)c2c1` , field inhibition at 20 µM: < 50%

Record `Cc1ncc(-n2cnc3cc(C#N)ccc32)nc1N[C@@H](C)c1ccccc1` , field inhibition at 20 µM: ≥ 50%

Record CC(Nc1cncc(-n2cnc3ccccc32)n1)c1ccc(-n2ccnc2)cc1 (stereo not drawn) , field inhibition at 20 µM: < 50%

Record `C[C@H](Nc1cncc(-n2cnc3ccc(-c4nn[nH]n4)cc32)n1)c1ccc(F)cc1` , field inhibition at 20 µM: ≥ 50%

Record `N#Cc1ccc2c(c1)ncn2-c1cncc(NC2Cc3ccccc3C2)n1` , field inhibition at 20 µM: < 50%

Record `COc1cc(-c2cncc(-n3cnc4ccccc43)n2)ccc1O` , field inhibition at 20 µM: < 50%

Record `C[C@H](Nc1cncc(-n2cnc3cc(NS(=O)(=O)c4ccccc4)ccc32)n1)c1ccccc1` , field inhibition at 20 µM: ≥ 50%

Record CC(Nc1cncc(-n2cnc3ccc(C#N)cc32)n1)c1cccnc1 (stereo not drawn) , field inhibition at 20 µM: < 50%

Record `C[C@H](Nc1cncc(-n2cnc3cc(C(=O)NCCCCN4CCOCC4)ccc32)n1)c1ccccc1` , field inhibition at 20 µM: ≥ 50%

Record `C[C@H](Nc1cncc(-n2cnc3ccc(C#N)cc32)n1)c1ccccc1` , field inhibition at 20 µM: ≥ 50%

Record `C[C@H](Nc1cncc(-n2cnc3ccc(CN4CCNCC4)cc32)n1)c1ccc(F)cc1` , field inhibition at 20 µM: < 50%

Record CC(Nc1cncc(-n2cnc3ccc(C#N)cc32)n1)c1ccc(F)c(F)c1 (stereo not drawn) , field inhibition at 20 µM: ≥ 50%

Record CC(Nc1cncc(-n2cnc3cc(CO)ccc32)n1)c1ccc(F)cc1 (stereo not drawn) , field inhibition at 20 µM: < 50%

Record N#Cc1ccc2c(c1)ncn2-c1cncc(NC2CCc3cc(F)ccc32)n1 (stereo not drawn) , field inhibition at 20 µM: ≥ 50%

Record `CO/C=C\N(C)CCCCNC(=O)c1ccc2ncn(-c3cncc(N[C@@H](C)c4ccccc4)n3)c2c1` , field inhibition at 20 µM: ≥ 50%

Record CC(Nc1cncc(-n2cnc3cc(C#N)ccc32)n1)c1cccc2ccccc12 (stereo not drawn) , field inhibition at 20 µM: < 50%

Record CC(Nc1cncc(-n2cnc3ccc(CO)cc32)n1)c1ccc(F)cc1 (stereo not drawn) , field inhibition at 20 µM: ≥ 50%
